System: LXRa:RXRa (NR concentration 270 nM, RXRa partner concentration 90 nM)
Experiment: PBM binding z-score (relative to random genomic background probes); higher = stronger binding; sequences stand for … in GC…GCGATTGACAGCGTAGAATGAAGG
I would appreciate it if you labelled entries 1.0 when PBM binding z-score is 1 or higher, otherwise 0.0.

| residue-codes | category-label |
| --- | --- |
| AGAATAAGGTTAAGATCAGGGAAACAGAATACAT | 1.0 |
| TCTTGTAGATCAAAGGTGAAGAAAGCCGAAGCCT | 1.0 |
| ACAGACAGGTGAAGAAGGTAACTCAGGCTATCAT | 0.0 |
| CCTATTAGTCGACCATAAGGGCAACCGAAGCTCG | 0.0 |
| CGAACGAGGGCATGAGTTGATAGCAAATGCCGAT | 0.0 |
| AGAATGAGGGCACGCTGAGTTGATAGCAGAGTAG | 1.0 |
| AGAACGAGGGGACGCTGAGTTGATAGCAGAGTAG | 0.0 |
| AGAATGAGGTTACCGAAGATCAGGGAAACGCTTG | 1.0 |
| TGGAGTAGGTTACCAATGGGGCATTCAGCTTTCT | 1.0 |
| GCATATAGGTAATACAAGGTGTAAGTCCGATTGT | 0.0 |
| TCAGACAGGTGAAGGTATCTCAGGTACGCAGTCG | 0.0 |
| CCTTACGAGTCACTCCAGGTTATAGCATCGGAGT | 1.0 |

----------
This listing pairs sequences with measured PBM binding z-score.
Tested on: RARa:RXR (NR concentration 270 nM, RXRa partner concentration 90 nM)
Assay: PBM binding z-score (relative to random genomic background probes); higher = stronger binding; sequences stand for … in GC…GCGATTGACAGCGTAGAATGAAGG

| residue-codes | PBM binding z-score |
| --- | --- |
| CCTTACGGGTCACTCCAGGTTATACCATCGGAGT | 3.74 |
| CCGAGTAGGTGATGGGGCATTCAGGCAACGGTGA | -0.226 |
| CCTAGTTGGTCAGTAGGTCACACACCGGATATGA | 2.76 |
| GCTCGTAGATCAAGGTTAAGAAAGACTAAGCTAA | 0.412 |
| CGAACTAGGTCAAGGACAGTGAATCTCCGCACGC | 2.3 |
| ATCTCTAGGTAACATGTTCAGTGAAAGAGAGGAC | 0.322 |

----------
In this section we review reported PBM binding z-score values for a set of sequences.
System: PPARg homodimer (NR concentration 180 nM)
Assay: PBM binding z-score (relative to random genomic background probes); higher = stronger binding; sequences stand for … in GC…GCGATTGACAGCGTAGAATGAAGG

| residue-codes | subject-of-test | PBM binding z-score |
| --- | --- | --- |
| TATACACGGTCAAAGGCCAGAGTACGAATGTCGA | PPARg homodimer (NR concentration 180 nM) | 1.12 |
| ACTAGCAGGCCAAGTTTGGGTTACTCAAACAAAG | PPARg homodimer (NR concentration 180 nM) | -0.611 |
| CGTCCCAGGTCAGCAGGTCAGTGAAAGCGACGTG | PPARg homodimer (NR concentration 180 nM) | 1.2 |
| TCAGACAGGTAAAGGTAACTCAGGTACGCAGTCG | PPARg homodimer (NR concentration 180 nM) | 0.82 |
| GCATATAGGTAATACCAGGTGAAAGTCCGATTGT | PPARg homodimer (NR concentration 180 nM) | 0.56 |
| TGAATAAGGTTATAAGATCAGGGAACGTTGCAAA | PPARg homodimer (NR concentration 180 nM) | 0.811 |
| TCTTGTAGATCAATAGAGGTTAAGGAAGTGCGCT | PPARg homodimer (NR concentration 180 nM) | 0.732 |
| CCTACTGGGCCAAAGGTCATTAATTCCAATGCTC | PPARg homodimer (NR concentration 180 nM) | 4.75 |
| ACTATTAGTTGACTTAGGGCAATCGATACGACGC | PPARg homodimer (NR concentration 180 nM) | 0.761 |
| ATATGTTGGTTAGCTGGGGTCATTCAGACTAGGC | PPARg homodimer (NR concentration 180 nM) | 2.8 |
| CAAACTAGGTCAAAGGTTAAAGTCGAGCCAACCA | PPARg homodimer (NR concentration 180 nM) | 5.15 |
| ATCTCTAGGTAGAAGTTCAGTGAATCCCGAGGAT | PPARg homodimer (NR concentration 180 nM) | 0.271 |

----------
The entries below come with measured PBM binding z-score values attached.
Tested on: RXRa homodimer (NR concentration 180 nM)
Experiment: PBM binding z-score (relative to random genomic background probes); higher = stronger binding; sequences stand for … in GC…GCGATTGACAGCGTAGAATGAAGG
attribute-measured: PBM binding z-score

| residue-codes | endpoint-result |
| --- | --- |
| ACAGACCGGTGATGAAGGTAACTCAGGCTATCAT | -0.04 |
| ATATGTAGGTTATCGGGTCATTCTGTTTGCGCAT | 3.44 |
| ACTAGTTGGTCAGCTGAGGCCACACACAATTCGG | 0.0882 |
| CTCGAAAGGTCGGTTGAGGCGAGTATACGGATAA | 1.72 |
| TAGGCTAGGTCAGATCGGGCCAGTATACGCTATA | 1.45 |
| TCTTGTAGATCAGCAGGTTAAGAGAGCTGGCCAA | 0.367 |
| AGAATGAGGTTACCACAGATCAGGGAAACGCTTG | 2.61 |
| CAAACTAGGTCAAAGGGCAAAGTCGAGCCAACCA | 7.35 |
| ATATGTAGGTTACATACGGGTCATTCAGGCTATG | 3.48 |
| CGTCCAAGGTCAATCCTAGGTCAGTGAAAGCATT | 5.38 |
| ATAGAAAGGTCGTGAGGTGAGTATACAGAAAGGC | 5.4 |
| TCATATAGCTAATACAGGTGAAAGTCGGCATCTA | 0.758 |
| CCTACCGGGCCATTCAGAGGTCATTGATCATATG | 3.86 |
| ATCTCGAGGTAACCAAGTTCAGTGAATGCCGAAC | 0.825 |
| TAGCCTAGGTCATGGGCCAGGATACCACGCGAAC | 3.86 |
| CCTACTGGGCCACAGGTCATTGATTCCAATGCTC | 2.23 |
| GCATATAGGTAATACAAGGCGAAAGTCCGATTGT | 0.182 |
| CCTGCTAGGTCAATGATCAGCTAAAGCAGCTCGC | 1.83 |
| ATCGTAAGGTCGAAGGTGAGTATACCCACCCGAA | 3.4 |
| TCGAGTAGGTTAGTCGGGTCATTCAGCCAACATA | 2.1 |
| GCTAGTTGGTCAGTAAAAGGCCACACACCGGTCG | 0.227 |
| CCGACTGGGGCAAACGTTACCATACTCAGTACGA | 0.251 |
| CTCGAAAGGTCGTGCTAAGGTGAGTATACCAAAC | 5.25 |
| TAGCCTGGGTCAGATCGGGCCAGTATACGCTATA | 1.46 |
| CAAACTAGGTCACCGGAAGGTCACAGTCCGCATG | 6.67 |
| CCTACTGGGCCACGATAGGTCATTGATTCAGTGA | 1.92 |

----------
# reported PBM binding z-score; entries follow
Tested on: PPARg:RXRa (NR concentration 180 nM, RXRa partner concentration 90 nM)
Assay: PBM binding z-score (relative to random genomic background probes); higher = stronger binding; sequences stand for … in GC…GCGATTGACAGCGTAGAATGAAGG
attribute-measured: PBM binding z-score

| residue-codes | attribute-measured | endpoint-result |
| --- | --- | --- |
| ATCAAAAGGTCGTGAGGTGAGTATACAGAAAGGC | PBM binding z-score | 4.38 |
| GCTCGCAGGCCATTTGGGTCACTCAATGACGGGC | PBM binding z-score | 0.381 |
| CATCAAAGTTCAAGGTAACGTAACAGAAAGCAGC | PBM binding z-score | 3.59 |
| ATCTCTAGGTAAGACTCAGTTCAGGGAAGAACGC | PBM binding z-score | 0.216 |
| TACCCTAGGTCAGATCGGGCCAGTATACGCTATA | PBM binding z-score | 1.12 |
| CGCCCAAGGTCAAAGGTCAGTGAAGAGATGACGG | PBM binding z-score | 10.1 |
| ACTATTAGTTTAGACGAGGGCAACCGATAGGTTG | PBM binding z-score | 0.651 |
| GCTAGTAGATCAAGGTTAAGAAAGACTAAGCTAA | PBM binding z-score | 1.22 |
| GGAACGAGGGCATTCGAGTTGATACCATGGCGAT | PBM binding z-score | 1.06 |
| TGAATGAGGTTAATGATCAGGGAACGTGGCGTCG | PBM binding z-score | 1.58 |
| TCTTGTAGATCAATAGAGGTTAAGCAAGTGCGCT | PBM binding z-score | 0.0342 |
| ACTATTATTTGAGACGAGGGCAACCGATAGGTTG | PBM binding z-score | 0.833 |
| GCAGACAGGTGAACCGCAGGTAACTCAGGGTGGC | PBM binding z-score | 0.554 |
| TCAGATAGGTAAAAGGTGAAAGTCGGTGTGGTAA | PBM binding z-score | 6.03 |
| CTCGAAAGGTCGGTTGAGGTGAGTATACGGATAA | PBM binding z-score | 0.61 |
| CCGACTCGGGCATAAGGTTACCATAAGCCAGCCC | PBM binding z-score | 0.783 |
| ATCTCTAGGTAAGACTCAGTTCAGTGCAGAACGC | PBM binding z-score | 0.209 |
| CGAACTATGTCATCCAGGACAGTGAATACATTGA | PBM binding z-score | 1.11 |
| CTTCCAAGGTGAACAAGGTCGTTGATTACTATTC | PBM binding z-score | 0.855 |
| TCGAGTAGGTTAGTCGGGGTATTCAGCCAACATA | PBM binding z-score | -0.245 |
| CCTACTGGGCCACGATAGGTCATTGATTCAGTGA | PBM binding z-score | 2.44 |
| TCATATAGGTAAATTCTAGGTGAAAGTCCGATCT | PBM binding z-score | 1.84 |
| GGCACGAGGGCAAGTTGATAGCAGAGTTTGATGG | PBM binding z-score | 0.838 |
| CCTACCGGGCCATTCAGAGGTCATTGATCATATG | PBM binding z-score | 1.05 |
| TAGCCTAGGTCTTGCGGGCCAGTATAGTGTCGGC | PBM binding z-score | -0.663 |
| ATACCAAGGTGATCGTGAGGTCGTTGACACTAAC | PBM binding z-score | 0.583 |
